meta.source: ChEMBL document CHEMBL1140864

Examples of compounds with documented inhibition at 10 µM follow.
tested on: HeLa; assay: Antiproliferative activity against human HeLa cells at 10 uM after 96 hrs by MTT assay; format: functional
Record the value in %, omitting the unit from your answer.

Illustrative cases are given below, each with its answer.
Compound	Unit	inhibition at 10 µM
CC(=O)O[C@H]1CC[C@]2(C)[C@H]3CC=C4[C@@H]5[C@@H](C)[C@H](C)CC[C@]5(C(=O)Nc5ccccc5CO)CC[C@@]4(C)[C@]3(C)CC[C@H]2C1(C)C	%	77.5
CCC(C)C(NC(=O)[C@]12CC[C@@H](C)[C@H](C)[C@H]1C1=CC[C@@H]3[C@@]4(C)CC[C@H](O)C(C)(C)[C@@H]4CC[C@@]3(C)[C@]1(C)CC2)C(=O)O (stereo partly drawn)	%	16.8

In the following, a different compound is considered.
Fill in the blank: the reported inhibition at 10 µM of `C[C@H]1[C@H](C)CC[C@]2(C(=O)NCC(=O)O)CC[C@]3(C)C(=CC[C@@H]4[C@@]5(C)CC[C@H](O)C(C)(C)[C@@H]5CC[C@]43C)[C@H]12` is ____. 15.6
